Target: human muscarinic M4 receptor (Homo sapiens)
Construct: expressed in transfected cells
Assay: Alphascreen Surefire phospho-ERK1/2 functional assay, M4
Assay type: cell-based
Details: CHO, read-out: % Emax cf. ACh (M4), CHO cells stably expressing human M4; Emax relative to ACh
Response field label takes satisfied when Emax is strictly below 70% and not satisfied in all other cases.

# Molecule, Assay System, Assigned Label
records = [
    ("Cc1noc(N2C3CCC2CC(N2CCC(C(=O)NC4(C)CCC4)CC2)C3)n1 (single isomer, unassigned) [6-5 Isomer 2]", "human muscarinic M4 receptor (Homo sapiens)", "not satisfied"),
    ("CC[C@H]1CCC(=O)N1C1CCN(C2CCCN(c3nc(C)no3)CC2)CC1 (single isomer, unassigned) [10-9 Isomer 2]", "human muscarinic M4 receptor (Homo sapiens)", "satisfied"),
    ("Cc1noc(N2C3CCC2CC(N2CCC(C(=O)NCC4(C)CCC4)CC2)C3)n1 (single isomer, unassigned) [12-12 Isomer 2]", "human muscarinic M4 receptor (Homo sapiens)", "not satisfied"),
    ("Cc1noc(N2CCCC(N3CCC4(CC3)OC(=O)NC4(C)C)CC2)n1 (single isomer, unassigned) [10-5 Isomer 1]", "human muscarinic M4 receptor (Homo sapiens)", "satisfied"),
    ("Cc1noc(N2CCCC(N3CCC(n4cccn4)CC3)CC2)n1 (single isomer, unassigned) [10-1 Isomer 1]", "human muscarinic M4 receptor (Homo sapiens)", "not satisfied"),
    ("Cc1noc(N2CC3CCC2CC3N2CCC3(CC2)CNC(=O)O3)n1 (single isomer, unassigned) [12-2 Isomer 2]", "human muscarinic M4 receptor (Homo sapiens)", "satisfied"),
]

* * *

Target: human muscarinic M4 receptor (Homo sapiens)
Construct: expressed in transfected cells
Sequence (P08173 1-479): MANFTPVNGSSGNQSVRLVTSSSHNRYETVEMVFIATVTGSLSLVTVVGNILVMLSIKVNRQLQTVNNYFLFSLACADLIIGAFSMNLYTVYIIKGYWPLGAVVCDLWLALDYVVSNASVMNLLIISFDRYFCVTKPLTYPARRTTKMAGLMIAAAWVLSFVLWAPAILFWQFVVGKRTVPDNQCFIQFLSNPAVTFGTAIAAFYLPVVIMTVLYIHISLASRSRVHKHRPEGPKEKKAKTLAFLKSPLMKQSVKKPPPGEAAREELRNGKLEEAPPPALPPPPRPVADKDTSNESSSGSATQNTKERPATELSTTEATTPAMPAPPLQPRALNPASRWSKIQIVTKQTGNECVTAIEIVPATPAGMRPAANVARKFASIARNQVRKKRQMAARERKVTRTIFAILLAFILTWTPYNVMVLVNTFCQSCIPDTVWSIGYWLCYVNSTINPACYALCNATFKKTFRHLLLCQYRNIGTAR
Experiment: Alphascreen Surefire phospho-ERK1/2 functional assay, M4
Format: cell-based
Details: CHO, read-out: % Emax cf. ACh (M4), CHO cells stably expressing human M4; Emax relative to ACh
Readout: Emax (%)

# Compound, Numeric Result
rows = [
    ("Cc1noc(N2CCCC(N3CCC4(CC3)CNC(=O)O4)CC2)n1 (racemic) [10-3 Racemic mixture]", 10),
    ("Cc1noc(N2C3CCC2CC(N2CCC(C(=O)NC4(C(F)(F)F)CCC4)CC2)C3)n1 (single isomer, unassigned) [12-7 Isomer 2]", 109),
    ("Cc1noc(N2CCCC(N3CCC(N4C[C@H](F)C[C@@H]4CO)CC3)CC2)n1 (single isomer, unassigned) [10-7 Isomer 1]", 89),
    ("Cc1noc(N2CC3CCC2CC3N2CCC(n3cccn3)CC2)n1 (single isomer, unassigned) [7-1 Isomer 1]", 85),
    ("CCOC(=O)[C@H]1[C@@H]2CN(C3CC4(CCN(c5nc(C)no5)C4)C3)C[C@@H]21 (single isomer, unassigned) [2-3 Isomer 2]", 32),
    ("Cc1noc(N2CCCC(N3CCC(N4CC(F)(F)C[C@@H]4CO)CC3)CC2)n1 (single isomer, unassigned) [10-8 Isomer 1]", 91),
    ("Cc1noc(N2CC3CC(N4CCC5(CC4)CNC(=O)C5)CC2C3)n1 (single isomer, unassigned) [11-2 Isomer 2]", 15),
    ("Cc1noc(N2C3CCC2CC(N2CCC(n4cccn4)CC2)C3)n1 (single isomer, unassigned) [6-1 Isomer 1]", 51),
    ("CCc1noc(N2C3CCC2CC(N2CCC4(CC2)CNC(=O)C4)C3)n1 (single isomer, unassigned) [6-3 Isomer 2]", 7),
    ("Cc1noc(N2C3CCCC2CC(N2CCC(n4cccn4)CC2)C3)n1 (single isomer, unassigned) [8-1 Isomer 2]", 38),
    ("Cc1noc(N2CCC(N3CCC(n4cccn4)CC3)CC2)n1", 85),
    ("Cc1noc(N2CC3(CCC(N4CCC(n5cccn5)CC4)C3)C2)n1 (single isomer, unassigned) [3-1 Isomer 2]", 68),
    ("Cc1noc(N2C3CCCC2CC(N2CCC(C(=O)NC4(C)CCC4)CC2)C3)n1 (single isomer, unassigned) [8-4 Isomer 1]", 76),
    ("CCN(C(C)=O)C1CCN(C2CCCN(c3nc(C)no3)CC2)CC1 (racemic) [10-11 Racemic mixture]", 101),
    ("Cc1noc(N2C3CCC2CC(N2CCC(C(=O)NC4(C)CCCC4)CC2)C3)n1 (single isomer, unassigned) [12-11 Isomer 2]", 83),
    ("Cc1noc(N2CC3(CC(N4CCC(n5cccn5)CC4)C3)C2)n1", 77),
    ("Cc1noc(N2CC3CC(N4CCC(n5cccn5)CC4)CC2C3)n1 (single isomer, unassigned) [11-1 Isomer 2]", 69),
    ("Cc1noc(N2C3CCCC2CC(N2CCC4(CC2)CNC(=O)C4)C3)n1 (single isomer, unassigned) [8-2 Isomer 1]", 9),
    ("Cc1noc(N2CC3CC(N4CCC5(CC4)CNC(=O)O5)CC2C3)n1 (single isomer, unassigned) [11-3 Isomer 2]", 11),
    ("O=C1CC2(CCN(C3CC4CCC(C3)N4c3nc(C(F)(F)F)no3)CC2)CN1 (single isomer, unassigned) [12-3 Isomer 1]", 14),
    ("Cc1noc(N2CCCC(N3CCC4(CC3)C(=O)Nc3ccccc34)CC2)n1 (single isomer, unassigned) [10-6 Isomer 1]", 77),
    ("Cc1noc(N2CC3CC(C2)C3N2CCC(n3cccn3)CC2)n1 (single isomer, unassigned) [5-1 Isomer 1]", 55),
    ("Cc1noc(N2CCC3(CC(N4CCC(n5cccn5)CC4)C3)C2)n1 (single isomer, unassigned) [2-1 Isomer 2]", 41),
    ("Cc1noc(N2C3COCC2CC(N2CCC(n4cccn4)CC2)C3)n1 (single isomer, unassigned) [9-1 Isomer 1]", 77),
    ("Cc1noc(N2CCCC(N3CCC4(CC3)CNC(=O)C4)CC2)n1 (single isomer, unassigned) [10-2 Isomer 1]", 10),
    ("CCN(CC)C(=O)[C@H]1[C@@H]2CN(C3CC4COCC(C3)N4c3nc(C)no3)C[C@@H]21 (single isomer, unassigned) [9-2 Isomer 2]", 74),
    ("CNC(=O)N1CCC[C@H]1C1CCN(C2CCCN(c3nc(C)no3)CC2)CC1 (single isomer, unassigned) [10-12 Isomer 1]", 100),
]

* * *

Target: human muscarinic M1 receptor (Homo sapiens)
Sequence (P11229 1-460): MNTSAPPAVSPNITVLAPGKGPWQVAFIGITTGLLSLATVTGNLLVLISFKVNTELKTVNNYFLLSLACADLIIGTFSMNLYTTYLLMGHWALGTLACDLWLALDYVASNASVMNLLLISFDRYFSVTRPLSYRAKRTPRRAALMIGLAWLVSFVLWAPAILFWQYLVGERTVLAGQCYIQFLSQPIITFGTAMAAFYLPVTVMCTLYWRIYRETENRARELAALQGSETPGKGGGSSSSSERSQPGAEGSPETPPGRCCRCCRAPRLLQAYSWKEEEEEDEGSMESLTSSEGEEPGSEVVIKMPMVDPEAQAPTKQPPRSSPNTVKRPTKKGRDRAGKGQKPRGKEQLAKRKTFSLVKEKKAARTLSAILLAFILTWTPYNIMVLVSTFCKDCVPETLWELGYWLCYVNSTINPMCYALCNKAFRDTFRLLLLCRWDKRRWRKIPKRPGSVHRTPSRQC
Assay: Alphascreen Surefire phospho-ERK1/2 functional assay, M1
Type: cell-based
Details: CHO cells stably expressing human M1; agonist 5 min, 37° C.; read-out: pEC50 M1 (converted)
Below, each entry is listed with its recorded EC50.
Readout: EC50 (nM)

# Molecule, Readout, Units Text, Comparison Operator, Numeric Result
measured = [
    ("Cc1noc(N2CC3CC(N4CCC5(CC4)CNC(=O)C5)CC2C3)n1 (single isomer, unassigned) [11-2 Isomer 2]", "EC50", "nM", "=", 9.55),
    ("CCC1(NC(=O)C2CCN(C3CC4CCC(C3)N4c3nc(C)no3)CC2)CCC1 (single isomer, unassigned) [12-8 Isomer 2]", "EC50", "nM", "=", 135),
    ("CCN(CC)C(=O)[C@H]1[C@@H]2CN(C3CC4COCC(C3)N4c3nc(C)no3)C[C@@H]21 (single isomer, unassigned) [9-2 Isomer 2]", "EC50", "nM", "=", 219),
    ("CC[C@H]1CCC(=O)N1C1CCN(C2CCCN(c3nc(C)no3)CC2)CC1 (single isomer, unassigned) [10-9 Isomer 2]", "EC50", "nM", "=", 1320),
    ("Cc1noc(N2C3CCCC2CC(N2CCC(C(=O)NC4(C)CCC4)CC2)C3)n1 (single isomer, unassigned) [8-4 Isomer 1]", "EC50", "nM", "=", 575),
    ("Cc1noc(N2CC3CC(C2)C3N2CCC(n3cccn3)CC2)n1 (single isomer, unassigned) [5-1 Isomer 1]", "EC50", "nM", ">", 20000),
]
